# measurementTarget: DRB5*0101 (DR2w2a) (Homo sapiens, UniProt P01903+Q30154)
# Construct: Epstein-Barr virus (EBV) transformed homozygous cell lines were used as sources; endogenous in cells; host or cells: GM3107 (EBV-transformed homozygous B cell line)
# test: biochemical
# Format: binding
# particulars: Binding Capacity (IC50% nM) DR2w2a
No end group written: not given here.
Could you please report measured IC50 for the items listed next?

Consider the following illustrative entries.
INSERT INTO assay_data (macromoleculesequence, reading) VALUES
  ('WLFPRFKFVWVTYASW [Peptide 1136.44.01]', '> 10000 nM'),
  ('QEIDPLSYNYIPVNSN [Peptide 1136.55]', '> 10000 nM');

Then this sequence:
[in] Return value of IC50 for input LWWSTMYLTHHYFVDL [Peptide 1136.46] , no commentary.
[out] > 10000 nM

* * *

# measurementTarget: DRB1*1201 (DR5w12) (Homo sapiens, UniProt P01903+P01911, A100R/A169T/D57E/D86V/F55L/H45Y/K41T/L162R/M171V/P40S/Q125H/Q178H/Q39Y/Q99D/R42G/S66L/T262R/V114A/V67L/W38E/Y59H/Y61H/Y89S)
# Construct: Epstein-Barr virus (EBV) transformed homozygous cell lines were used as sources; endogenous in cells; host or cells: Herluf (EBV-transformed homozygous B cell line)
# test: biochemical
# Assay type: binding
# particulars: Binding Capacity (IC50% nM) DR5w12
No end group written: not given here.
Could you please report measured IC50 for the items listed next?

For every record below, what is its IC50?
1. WLFPRFKFVWVTYASW [Peptide 1136.44.01]
2. QEIDPLSYNYIPVNSN [Peptide 1136.55]
3. LAAIIFLFGPPTALRS [Peptide 1136.28]

[out]
1: > 10000 nM; 2: > 10000 nM; 3: 4480 nM
